kinase still bound, per cent of control values, listed per item
# TESTED_SYSTEM: AAK1 (human) (UniProt Q2M2I8)
# Sequence (Q2M2I8 whole entry, looked up): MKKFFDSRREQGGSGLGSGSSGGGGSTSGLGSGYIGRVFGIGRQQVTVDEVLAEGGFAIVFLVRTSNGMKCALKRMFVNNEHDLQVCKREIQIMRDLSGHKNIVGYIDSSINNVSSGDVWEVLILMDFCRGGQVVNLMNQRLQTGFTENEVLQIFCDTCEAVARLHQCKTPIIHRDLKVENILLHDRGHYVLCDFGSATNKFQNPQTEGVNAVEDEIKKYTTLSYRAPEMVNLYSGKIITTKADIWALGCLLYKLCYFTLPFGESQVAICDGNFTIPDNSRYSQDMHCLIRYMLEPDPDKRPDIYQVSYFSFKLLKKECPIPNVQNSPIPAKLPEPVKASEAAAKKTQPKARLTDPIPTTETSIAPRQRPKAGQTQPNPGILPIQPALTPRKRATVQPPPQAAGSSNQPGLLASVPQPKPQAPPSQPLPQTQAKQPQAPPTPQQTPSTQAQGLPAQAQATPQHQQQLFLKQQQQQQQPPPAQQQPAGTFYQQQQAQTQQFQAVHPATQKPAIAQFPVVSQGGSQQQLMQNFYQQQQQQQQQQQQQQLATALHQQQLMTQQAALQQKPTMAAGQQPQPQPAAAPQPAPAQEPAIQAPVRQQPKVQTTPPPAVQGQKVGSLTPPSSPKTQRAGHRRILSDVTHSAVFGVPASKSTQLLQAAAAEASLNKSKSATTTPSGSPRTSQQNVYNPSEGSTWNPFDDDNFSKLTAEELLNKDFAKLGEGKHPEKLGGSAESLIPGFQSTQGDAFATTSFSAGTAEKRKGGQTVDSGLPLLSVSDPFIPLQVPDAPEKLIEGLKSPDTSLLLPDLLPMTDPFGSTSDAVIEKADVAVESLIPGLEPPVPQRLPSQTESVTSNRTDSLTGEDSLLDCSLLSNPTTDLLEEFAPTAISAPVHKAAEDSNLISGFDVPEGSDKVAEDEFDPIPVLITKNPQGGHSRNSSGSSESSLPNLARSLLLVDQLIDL
# MEASUREMENT_DESCRIPTION: KINOMEscan competition binding
# CONDITIONS: compound 10.0 µM
READOUT_TYPE: kinase still bound, per cent of control (%)

> print(dat)
                                   molecule                             readout.type  recorded.number
1  Cc1cc([C@@H](C)Nc2ccccc2C(=O)O)c2nc(N3CCOCC3)cc(=O)n2c1  kinase still bound, per cent of control               95
2  C=CC(=O)Nc1cccc(Nc2nc(N[C@H]3CC[C@H](N(C)C)CC3)nc3c2ncn3C(C)C)c1  kinase still bound, per cent of control               45
3    N#Cc1c(NC(=O)c2cccc3ccccc23)sc2c1CCCC2  kinase still bound, per cent of control               91
4  O=C1Nc2ccc(I)cc2/C1=C/c1cc(Br)c(O)c(Br)c1  kinase still bound, per cent of control              5.2
5  Nc1ccc(-c2ccc3ncc4ccc(=O)n(-c5cccc(C(F)(F)F)c5)c4c3c2)cn1  kinase still bound, per cent of control               71
6  COc1cc(C(=O)NC2CCN(C)CC2)ccc1Nc1ncc2c(n1)N(C1CCCC1)C(C)CC(=O)N2C (centres undefined)  kinase still bound, per cent of control              100
7  COc1cc(C(=O)NC2CCN(C)CC2)ccc1Nc1ncc2c(n1)N(C1CCCC1)CCC(=O)N2C(C)C  kinase still bound, per cent of control              100
8  Cn1c(=O)n(-c2ccc(C(C)(C)C#N)cc2)c2c3cc(-c4cnc5ccccc5c4)ccc3ncc21  kinase still bound, per cent of control              100
9  CN(C)C/C=C/C(=O)Nc1cccc(Nc2ncc3c(n2)N(C)c2ccccc2C(=O)N3C)c1  kinase still bound, per cent of control               20

----------
# Tested on: EIF2AK4 KD2 (human), Q9P2K8 [S808G]
# Sequence (Q9P2K8 whole entry S808G, looked up): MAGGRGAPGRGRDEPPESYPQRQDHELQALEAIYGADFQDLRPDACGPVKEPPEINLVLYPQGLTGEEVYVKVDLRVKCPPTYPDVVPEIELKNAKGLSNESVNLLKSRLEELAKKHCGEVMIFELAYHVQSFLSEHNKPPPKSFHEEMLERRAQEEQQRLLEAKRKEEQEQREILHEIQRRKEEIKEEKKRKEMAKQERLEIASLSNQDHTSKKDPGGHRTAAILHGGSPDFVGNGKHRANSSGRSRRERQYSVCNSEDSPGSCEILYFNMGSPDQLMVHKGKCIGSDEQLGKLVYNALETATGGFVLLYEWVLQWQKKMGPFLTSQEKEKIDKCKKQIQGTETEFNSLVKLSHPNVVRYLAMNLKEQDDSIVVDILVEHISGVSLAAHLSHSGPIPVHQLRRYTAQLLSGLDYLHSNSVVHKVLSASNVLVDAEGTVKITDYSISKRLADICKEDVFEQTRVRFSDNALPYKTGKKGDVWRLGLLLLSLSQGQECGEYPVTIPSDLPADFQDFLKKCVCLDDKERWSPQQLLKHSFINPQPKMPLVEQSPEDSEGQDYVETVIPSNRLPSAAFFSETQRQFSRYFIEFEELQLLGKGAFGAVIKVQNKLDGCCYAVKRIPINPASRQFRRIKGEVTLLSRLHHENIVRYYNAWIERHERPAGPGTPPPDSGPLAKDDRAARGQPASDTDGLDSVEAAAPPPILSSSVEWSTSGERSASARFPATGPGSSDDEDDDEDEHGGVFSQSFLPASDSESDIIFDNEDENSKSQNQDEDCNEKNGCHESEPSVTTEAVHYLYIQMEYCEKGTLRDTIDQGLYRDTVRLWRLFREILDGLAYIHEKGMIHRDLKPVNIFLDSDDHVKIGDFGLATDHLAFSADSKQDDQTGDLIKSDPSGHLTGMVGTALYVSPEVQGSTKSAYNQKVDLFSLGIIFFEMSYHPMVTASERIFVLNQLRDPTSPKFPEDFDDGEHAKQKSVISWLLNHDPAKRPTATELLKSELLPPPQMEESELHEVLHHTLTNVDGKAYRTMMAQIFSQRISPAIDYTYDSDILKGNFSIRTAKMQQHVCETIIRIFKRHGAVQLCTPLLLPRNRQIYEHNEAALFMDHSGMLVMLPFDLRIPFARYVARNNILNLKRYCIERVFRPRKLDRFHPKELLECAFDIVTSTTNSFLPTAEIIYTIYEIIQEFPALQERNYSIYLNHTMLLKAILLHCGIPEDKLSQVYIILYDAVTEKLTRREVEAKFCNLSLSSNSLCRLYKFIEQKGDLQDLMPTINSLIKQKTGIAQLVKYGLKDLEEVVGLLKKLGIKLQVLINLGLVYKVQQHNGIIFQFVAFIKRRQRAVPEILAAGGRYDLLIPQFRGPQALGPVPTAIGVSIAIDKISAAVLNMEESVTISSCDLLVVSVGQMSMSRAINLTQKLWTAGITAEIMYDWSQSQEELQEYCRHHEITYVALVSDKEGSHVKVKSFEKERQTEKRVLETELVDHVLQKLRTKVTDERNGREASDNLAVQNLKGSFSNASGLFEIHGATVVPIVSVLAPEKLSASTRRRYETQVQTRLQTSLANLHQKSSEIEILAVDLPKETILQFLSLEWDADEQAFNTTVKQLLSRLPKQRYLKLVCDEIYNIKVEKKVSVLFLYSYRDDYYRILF
# MEASUREMENT_DESCRIPTION: KINOMEscan competition binding
# CONDITIONS: compound 10.0 µM
READOUT_TYPE: kinase still bound, per cent of control (%)

> print(dat)
                                    compound                             readout.type  endpoint.unit  recorded.number
 1  Cc1ccc(C(=O)Nc2cccc(C(F)(F)F)c2)cc1Nc1cncc(C(N)=O)c1  kinase still bound, per cent of control              %              100
 2  COc1cc2ncnc(-n3nc(-c4ccccn4)nc3N)c2cc1OC  kinase still bound, per cent of control              %              1.6
 3  CN(C)C/C=C/C(=O)Nc1ccc(C(=O)Nc2cccc(Nc3nccc(-c4cccnc4)n3)c2)cc1  kinase still bound, per cent of control              %               97
 4  CC1=C(C(=O)Nc2cc3cn[nH]c3cc2F)C(c2ccc(C(F)(F)F)cc2)CC(=O)N1 (stereo unspecified)  kinase still bound, per cent of control              %              100
 5  COc1cc(C(=O)NC2CCN(C)CC2)ccc1Nc1ncc2c(n1)N(C1CCCC1)CCC(=O)N2C(C)C  kinase still bound, per cent of control              %              100
 6  O=c1[nH]c2ccccc2n1C1CCN(Cc2ccc(-c3nc4cc5[nH]cnc5cc4nc3-c3ccccc3)cc2)CC1  kinase still bound, per cent of control              %              100
 7  C=CC(=O)Nc1ccc(CN(C(=O)Nc2c(Cl)c(OC)cc(OC)c2Cl)c2cc(Nc3ccc(N4CCN(C)CC4)cc3)ncn2)cc1  kinase still bound, per cent of control              %              1.5
 8  COc1cc(N2CCC(C(N)=O)CC2)ccc1Nc1nc(N)c(Cl)c(Nc2ccccc2S(=O)(=O)C(C)C)n1  kinase still bound, per cent of control              %              100
 9  O=C(NC1CC1)c1cccc(-c2ccc3c(NC(=O)C4CC4)n[nH]c3c2)c1  kinase still bound, per cent of control              %               96
10  CCN(CC)CCCCNc1ncc2cc(-c3cc(OC)cc(OC)c3)c(NC(=O)NC(C)(C)C)nc2n1  kinase still bound, per cent of control              %              100
11  O=C1Nc2ccc(I)cc2/C1=C/c1cc(Br)c(O)c(Br)c1  kinase still bound, per cent of control              %               78
12  Cc1cc([C@@H](C)Nc2ccccc2C(=O)O)c2nc(N3CCOCC3)cc(=O)n2c1  kinase still bound, per cent of control              %              100
13  CCN(CCO)CCCOc1ccc2c(Nc3cc(CC(=O)Nc4cccc(F)c4)[nH]n3)ncnc2c1  kinase still bound, per cent of control              %               62
14  COc1cc2c(Nc3ccc(NC(=O)c4ccccc4)cc3)ncnc2cc1OCCCN1CCOCC1  kinase still bound, per cent of control              %               43
15    N#Cc1c(NC(=O)c2cccc3ccccc23)sc2c1CCCC2  kinase still bound, per cent of control              %               82
16  CCOc1cc2ncc(C#N)c(Nc3ccc(OCc4ccccn4)c(Cl)c3)c2cc1NC(=O)/C=C/CN(C)C  kinase still bound, per cent of control              %              1.4

----------
kinase still bound, per cent of control values, listed per item
# TESTED_SYSTEM: RIPK4 (human)
# MEASUREMENT_DESCRIPTION: KINOMEscan competition binding
# CONDITIONS: compound 10.0 µM
READOUT_TYPE: kinase still bound, per cent of control (%)

> print(dat)
                                  structure  tested.system  recorded.number
1  Cc1ccc(C(=O)Nc2cccc(C(F)(F)F)c2)cc1Nc1cncc(C(N)=O)c1  RIPK4 (human)              100
2  COc1cc(N2CCN(C)CC2)ccc1Nc1nc(N)c(C(=O)c2c(Cl)cccc2Cl)s1  RIPK4 (human)               96
3  CCC(=O)N1CCN(c2ccc(-n3c(=O)ccc4cnc5ccc(-c6cnc7ccccc7c6)cc5c43)cc2C(F)(F)F)CC1  RIPK4 (human)              100
4  O=C(NC1CC1)c1cccc(-c2ccc3c(NC(=O)C4CC4)n[nH]c3c2)c1  RIPK4 (human)               84
5  O=C(O)c1ccc(Nc2ncc3c(n2)-c2ccc(Cl)cc2C(c2c(F)cccc2F)=NC3)cc1  RIPK4 (human)              100
6  Nc1ccc(-c2ccc3ncc4ccc(=O)n(-c5cccc(C(F)(F)F)c5)c4c3c2)cn1  RIPK4 (human)              100
7  CCOc1cc2ncc(C#N)c(Nc3ccc(OCc4ccccn4)c(Cl)c3)c2cc1NC(=O)/C=C/CN(C)C  RIPK4 (human)               77
8             Cc1ccc2nc(NCCN)c3ncc(C)n3c2c1  RIPK4 (human)              100

----------
# TESTED_SYSTEM: UniProt Q9H2G2
# Sequence (Q9H2G2 whole entry, looked up): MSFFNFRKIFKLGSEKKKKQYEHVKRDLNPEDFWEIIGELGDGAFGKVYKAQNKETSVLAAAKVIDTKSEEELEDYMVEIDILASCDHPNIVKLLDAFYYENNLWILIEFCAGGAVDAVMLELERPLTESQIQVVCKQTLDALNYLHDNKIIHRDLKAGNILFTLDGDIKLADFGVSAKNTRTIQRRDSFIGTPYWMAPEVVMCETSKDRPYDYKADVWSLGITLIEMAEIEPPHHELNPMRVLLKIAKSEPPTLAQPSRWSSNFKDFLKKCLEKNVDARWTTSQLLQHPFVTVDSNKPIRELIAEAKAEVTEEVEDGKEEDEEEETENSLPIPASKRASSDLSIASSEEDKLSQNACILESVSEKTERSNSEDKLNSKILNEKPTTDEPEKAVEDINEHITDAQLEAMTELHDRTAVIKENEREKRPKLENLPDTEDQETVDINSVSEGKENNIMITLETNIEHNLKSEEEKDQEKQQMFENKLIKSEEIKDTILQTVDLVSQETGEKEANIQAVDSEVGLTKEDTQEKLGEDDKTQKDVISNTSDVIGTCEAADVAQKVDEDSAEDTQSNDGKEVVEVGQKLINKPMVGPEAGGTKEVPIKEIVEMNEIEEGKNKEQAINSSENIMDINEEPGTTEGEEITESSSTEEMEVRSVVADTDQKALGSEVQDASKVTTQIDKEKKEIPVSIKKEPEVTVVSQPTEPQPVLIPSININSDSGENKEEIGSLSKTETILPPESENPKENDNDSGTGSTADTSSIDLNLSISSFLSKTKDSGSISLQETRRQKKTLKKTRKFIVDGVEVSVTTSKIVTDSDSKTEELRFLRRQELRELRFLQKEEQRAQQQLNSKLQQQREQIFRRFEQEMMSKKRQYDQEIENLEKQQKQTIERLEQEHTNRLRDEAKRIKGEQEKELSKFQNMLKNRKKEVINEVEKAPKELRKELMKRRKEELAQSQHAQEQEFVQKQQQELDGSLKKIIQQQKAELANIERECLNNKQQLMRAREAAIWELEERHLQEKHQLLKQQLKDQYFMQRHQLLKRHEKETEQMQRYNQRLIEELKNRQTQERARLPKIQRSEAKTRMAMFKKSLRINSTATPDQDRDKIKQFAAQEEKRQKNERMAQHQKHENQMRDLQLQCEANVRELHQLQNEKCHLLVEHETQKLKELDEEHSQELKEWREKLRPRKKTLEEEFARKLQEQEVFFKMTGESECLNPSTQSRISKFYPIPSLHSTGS
# MEASUREMENT_DESCRIPTION: KINOMEscan competition binding
# CONDITIONS: compound 10.0 µM
kinase still bound, per cent of control values, listed per item
READOUT_TYPE: kinase still bound, per cent of control (%)

> print(dat)
                                   compound   tested.system  recorded.number
1  COc1cc(C(=O)NC2CCN(C)CC2)ccc1Nc1ncc2c(n1)N(C1CCCC1)CCC(=O)N2C(C)C  UniProt Q9H2G2              100
2  CN(C)C/C=C/C(=O)Nc1cccc(Nc2ncc3c(n2)N(C)c2ccccc2C(=O)N3C)c1  UniProt Q9H2G2              7.3
3  O=C(O)c1ccc(Nc2ncc3c(n2)-c2ccc(Cl)cc2C(c2c(F)cccc2F)=NC3)cc1  UniProt Q9H2G2               80
4  Cc1ccc(NC(=O)c2cccc(C(C)(C)C#N)c2)cc1Nc1ccc2ncn(C)c(=O)c2c1  UniProt Q9H2G2               68
5  Cn1c(=O)n(-c2ccc(C(C)(C)C#N)cc2)c2c3cc(-c4cnc5ccccc5c4)ccc3ncc21  UniProt Q9H2G2              100
6  COc1cc(C(=O)NC2CCN(C)CC2)ccc1Nc1ncc2c(n1)N(C1CCCC1)C(C)CC(=O)N2C (stereo not drawn)  UniProt Q9H2G2              1.4
7  CCCS(=O)(=O)Nc1ccc(F)c(C(=O)c2c[nH]c3ncc(-c4ccc(Cl)cc4)cc23)c1F  UniProt Q9H2G2              1.4
8  Nc1ccc(-c2ccc3ncc4ccc(=O)n(-c5cccc(C(F)(F)F)c5)c4c3c2)cn1  UniProt Q9H2G2              100
